This document collects IC50 values reported for Type-1 angiotensin II receptor (Homo sapiens).

{"columns": ["SMILES", "IC50 (nM)"],
 "data": [
  ["CCCCc1ncc(/C=C2/C(=O)N(CCCC)C(=O)N2Cc2ccc(Cl)cc2)n1Cc1ccc(C(=O)OC)cc1", 17.6],
  ["CCCCc1ncc(/C=C2\\C(=O)NC(=O)N2CCCC)n1Cc1ccc(C2(C(=O)OC)CCCC2)cc1", 2.5],
  ["CCCCc1ncc(/C=C2/C(=O)N(CCCC)C(=O)N2Cc2ccc(N)cc2)n1Cc1ccc(C(=O)OC)cc1", 3],
  ["CCCCc1ncc(/C=C2/C(=O)N(CCCC)C(=O)N2Cc2csc(N)n2)n1Cc1ccc(C(=O)O)cc1", 0.6],
  ["CCCCc1ncc(/C=C2/C(=O)N(CCCC)C(=O)N2CCCC)n1Cc1ccc(S(=O)(=O)NC(F)(F)F)cc1", 29.6],
  ["CCCCc1ncc(/C=C2/C(=O)NC(=O)N2CCC(C)C)n1Cc1ccc(C(=O)O)cc1", 6.6],
  ["CCCCc1ncc(/C=C2\\C(=O)NC(=O)N2CCC(C)C)n1Cc1ccc(C(=O)O)cc1", 4.9],
  ["CCCCc1ncc(/C=C2/C(=O)NC(=O)N2CCCC)n1Cc1ccc(-c2nn[nH]n2)cc1", 7.1],
  ["CCCCc1ncc(/C=C2/C(=O)NC(=O)N2Cc2cccs2)n1Cc1ccc(C(=O)OC)cc1", 7.1],
  ["CCCCc1ncc(/C=C2/C(=O)N(CCCC)C(=O)N2Cc2c[nH]cn2)n1Cc1ccc(C(=O)OC)cc1", 54.5]
]}

----------
Let's go through some IC50 measurements on Type-1 angiotensin II receptor (Homo sapiens) together.
EXPERIMENTAL_ENDPOINT: IC50 (nM)

{"columns": ["SMILES", "EXPERIMENTAL_ENDPOINT", "NUMERIC_VALUE"],
 "data": [
  ["CCCCc1ncc(/C=C2/C(=O)N(CCCC)C(=O)N2Cc2ccoc2)n1Cc1ccc(C(=O)OC)cc1", "IC50", 8.3],
  ["CCCCc1ncc(/C=C2/C(=O)N(CCCO)C(=O)N2Cc2csc(C)n2)n1Cc1ccc(C(=O)OC)cc1", "IC50", 47.9],
  ["CCCCc1ncc(/C=C2/C(=O)N(CCCC)C(=O)N2Cc2ccc(C#N)cc2)n1Cc1ccc(C(=O)OC)cc1", "IC50", 11.1],
  ["CCCCc1ncc(/C=C2/C(=O)N(CCCC)C(=O)N2Cc2cccc(C)c2)n1Cc1ccc(C(=O)OC)cc1", "IC50", 18.5],
  ["CCCCc1ncc(/C=C2\\C(=O)N(CCCC)C(=O)N2Cc2csc(C)n2)n1Cc1ccc(C(=O)O)cc1", "IC50", 1.7],
  ["CCCCc1ncc(/C=C2/C(=O)N(CCCC)C(=O)N2Cc2ccc(-c3ccccc3)cc2)n1Cc1ccc(C(=O)OC)cc1", "IC50", 884],
  ["CCCCc1ncc(/C=C2/C(=O)N(CCCC)C(=O)N2Cc2ccc(OC)cc2)n1Cc1ccc(C(=O)OC)cc1", "IC50", 9.8],
  ["CCCCc1ncc(/C=C2/C(=O)N(CCC)C(=O)N2Cc2csc(C)n2)n1Cc1ccc(C(=O)OC)cc1", "IC50", 9]
]}

----------
Items are presented alongside their recorded IC50.
Biological target: Type-1 angiotensin II receptor (Homo sapiens, UniProt P30556)
Sequence (P30556 whole entry): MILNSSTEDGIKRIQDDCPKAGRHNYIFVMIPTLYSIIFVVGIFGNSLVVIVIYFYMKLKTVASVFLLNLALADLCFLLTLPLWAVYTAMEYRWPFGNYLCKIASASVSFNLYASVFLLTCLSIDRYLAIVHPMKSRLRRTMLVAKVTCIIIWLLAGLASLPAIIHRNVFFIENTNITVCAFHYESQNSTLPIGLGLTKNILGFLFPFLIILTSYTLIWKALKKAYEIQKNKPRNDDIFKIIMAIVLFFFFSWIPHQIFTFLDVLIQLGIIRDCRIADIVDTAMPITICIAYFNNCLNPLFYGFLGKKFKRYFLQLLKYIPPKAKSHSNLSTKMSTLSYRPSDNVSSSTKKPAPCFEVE
EXPERIMENTAL_ENDPOINT: IC50 (nM)

{"columns": ["SMILES", "UNIT_STRING", "NUMERIC_VALUE"],
 "data": [
  ["CCCCc1ncc(/C=C2/C(=O)N(CCCC)C(=O)N2Cc2ccc(C)cc2)n1Cc1ccc(C(=O)OC)cc1", "nM", 34.6],
  ["CCCCc1ncc(/C=C2/C(=O)N(CSCC)C(=O)N2Cc2csc(C)n2)n1Cc1ccc(C(=O)OC)cc1", "nM", 9.6],
  ["CCCCc1ncc(/C=C2/C(=O)N(CCCC)C(=O)N2C=C(C)C)n1Cc1ccc(C(=O)OC)cc1", "nM", 11.1],
  ["CCCCc1ncc(/C=C2\\C(=O)NC(=O)N2Cc2ccccc2)n1Cc1ccc(C(=O)O)cc1", "nM", 3.4],
  ["CCCCc1ncc(/C=C2\\C(=O)NC(=O)N2CCCC)n1Cc1ccc(-c2nn[nH]n2)cc1", "nM", 4.2],
  ["CCCCc1ncc(/C=C2/C(=O)NC(=O)N2Cc2ccc(Cl)cc2)n1Cc1ccc(C(=O)O)cc1", "nM", 3],
  ["CCCCc1ncc(/C=C2/C(=O)N(CCCC)C(=O)N2Cc2ccc(C(=O)OC)s2)n1Cc1ccc(C(=O)OC)cc1", "nM", 4.2],
  ["CCCCc1ncc(/C=C2/C(=O)N(CCCC)C(=O)N2Cc2ccc(C)s2)n1Cc1ccc(C(=O)O)cc1", "nM", 0.6]
]}
